Form field: koff (one value per entry).
# Tgt: T1, biotinylated GITR (human, UniProt Q9Y5U5 26-161, limits assumed, biotinylated (sites not given))
# T1 construct: also called GITR-bio; Biotin-GITR
# T1 sequence: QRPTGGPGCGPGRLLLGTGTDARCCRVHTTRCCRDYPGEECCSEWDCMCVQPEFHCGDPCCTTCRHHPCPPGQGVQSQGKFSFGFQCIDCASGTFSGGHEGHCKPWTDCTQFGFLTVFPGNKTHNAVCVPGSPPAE
# Method: BLI (Octet), biotin-GITR on streptavidin tips, antibody supernatant
Please report the result as a number followed by the unit.

Memo: germline variant antibody 68 (H1917B01 / K1917B01) (antibody, V domains shown, IGHG1/IGKC expression vectors; measured from CHO culture supernatant; also called Antibody ID 68) VH: QVQLVQSGTEVKKPGASVKVSCKGSGYTFTGYAMYWVRQAPGQGLEWIGLIRTYSGGVTYNQKFRGRVTMTVDTSISTAYMELSRLRSDDTAVYYCAKSGTVRGFAYWGQGTLVTVSS VL: DIVMTQSPDSLAVSLGERATINCKSSQSLLNSGNQKNYLTWYQQKPGQPPKMLIYWASTRESGVPDRFTGSGSGTDFTLTISSLQAEDVAVYYCQNDYSYPYTFGQGTKLEIK , reported koff: 0.000447 s⁻¹

Memo: germline variant antibody 92 (H1917F05 / K1917F05) (antibody, V domains shown, IGHG1/IGKC expression vectors; measured from CHO culture supernatant; also called Antibody ID 92) VH: QVQLVQSGAEVKKPGASVKVSCKGSGYTFTEYAMYWVRQAPGQGLEWMGLIRTFSGGVTYNQKFQGRATMTVDTSISTAYMELSRLQSDDTAVYYCAKSGTVRGFAYWGQGTLVTVSS VL: DIVMTQSPDSLAVSLGERATINCKSSQSLLNSGNQKNYLTWYHQKPGQPPKMLIYWASTRESGVPDRFSGSGSGTNFTLTISSVQAEDVAVYHCQNDYSYPYTFGQGTKLEIK , reported koff: 0.000361 s⁻¹

Memo: germline variant antibody 15 (H1916B05 / K1916B05) (antibody, V domains shown, IGHG1/IGKC expression vectors; measured from CHO culture supernatant; also called Antibody ID 15) VH: QVQLVQSGAEVKKPGASVKVSCKGSGYTFTDYAMYWVRQAPGQGLEWIGVIRTFSGDVSYNQKFRERATMTVDKSISTAYMELSRLRSDDTAVYYCAKSGTVRGFAYWGQGTLVTVSS VL: DIVMTQSPDSLAVSLGERATINCKSSQSLLNSGNQKNYLSWYQQKPGQPPKLLIYWASTRESGVPDRFTGSGSGTDFTLTISSLQAEDVAVYHCQNDYSYPYTFGQGTKLEIK , reported koff: 0.000616 s⁻¹

These data points were gathered from patent US20210070872A1.
